Target: T1, 4H264-bN
T1 chain: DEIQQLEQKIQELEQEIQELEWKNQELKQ
Assay: two-hybrid library CCNG1;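 note: natural log of median RNA to DNA barcode read ratio; higher means stronger binding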
For each of the binders below, state its interaction score.
Write no unit; give the number alone.

Recorded interaction score of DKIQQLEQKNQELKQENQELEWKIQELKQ [4H2518-bN] , please.
1.11

Recorded interaction score of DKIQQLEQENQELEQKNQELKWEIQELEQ [4H2233-bN] , please.
-0.163

Recorded interaction score of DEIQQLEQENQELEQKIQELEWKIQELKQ [4H166-bN] , please.
0.717
